Listing of recorded MIC by entry.
Test system: Mtb H37Rv
Protocol Details: microbe, parasite or virus in culture
Format: cell-based
Experimental Setup: Mycobacterium tuberculosis
Record the value in µM, omitting the unit from your answer.

Below are worked cases with known answers.
> print(dat)
                                   compound  reported.endpoint  unit.of.measure  reported.measurement
1  NNC(=O)c1ccncc1 [INH, isoniazid, reference compound]                MIC               µM                  0.26
2  O=C(OCCCCCl)c1cc(O)c2c(c1)C(=O)c1cccc(O)c1C2=O [HTB-03]                MIC               µM                  2.56

Problem: Report MIC for CC1CCCC(C)C1OC(=O)c1cc(O)c2c(c1)C(=O)c1cccc(O)c1C2=O (stereo not drawn) [HTB-05] please.
Solution: 3.9

Problem: How about this compound: CC(=O)Oc1cccc2c1C(=O)c1c(OC(C)=O)cc(C(=O)OCCCCCl)cc1C2=O [HTB-04]
Solution: 3.55

====

Test system: Mtb H37Rv
Protocol Details: microbe, parasite or virus in culture
Assay type: cell-based
Experimental Setup: Mycobacterium tuberculosis
Reported Endpoint: MIC (µM)
Numeric answer only, unit µM assumed.

Previously resolved entries follow.
> print(dat)
                                   compound  reported.endpoint  reported.measurement
1  COC(=O)c1cc(O)c2c(c1)C(=O)c1cccc(O)c1C2=O [HTB-01]                MIC                  6.37
2  O=C(O)c1cc(O)c2c(c1)C(=O)c1cccc(O)c1C2=O [Rhein, rhein]                MIC                   106
3  CC(=O)Oc1cccc2c1C(=O)c1c(OC(C)=O)cc(C(=O)OC3C(C)CCCC3C)cc1C2=O (centres unmarked) [HTB-06]                MIC                  7.31

Field: next compound
Problem: What does the record list as MIC for COC(=O)c1cc(OC(C)=O)c2c(c1)C(=O)c1cccc(OC(C)=O)c1C2=O [HTB-02] ?
Solution: 5.13

Cited source for all entries: paper PMC7389528
